Provenance of the data: patent US9260439B2

assayed_target: truncated PI3Kα (p110α/iSH2 p85α) (Homo sapiens (Human))
test_method_notes: PI3KA_Act fluorescence polarization kinase assay (Ki)
Format: biochemical
condition_label: 1 mM ATP
experimental_endpoint: PI3KA_Act Ki (nM)
Please state the figure in nM; there is no need to write the unit.

Guide cases for PI3KA_Act Ki, answers given:
INSERT INTO results (compound, result_number) VALUES
  ('Nc1ncc(-c2nc(N3CCOCC3)nc3c2CCN3[C@@H]2CCC(F)(F)C2)cn1 (single isomer, unassigned)', 0.311),
  ('CC[C@]1(N2CCc3c(-c4cnc(N)nc4)nc(N4CCOCC4)nc32)CCNC1.Cl', 0.955),
  ('C[C@H]1COCCN1c1nc(-c2cnc(N)nc2)c2c(n1)N([C@@]1(C)CCN(C(=O)[C@H]3CCCO3)C1)CC2', 0.035),
  ('Cn1ccnc1C(=O)N1CC[C@](C)(N2CCc3c(-c4cnc(N)nc4)nc(N4CCOCC4)nc32)C1', 0.084);

Q: Fill in: PI3KA_Act Ki of `CCC(=O)N1CC[C@](C)(N2CCc3c(-c4cnc(N)nc4)nc(N4CCOCC4)nc32)C1` is ___
A: 0.030

Q: Next record, please: `CC(C)(CNS(C)(=O)=O)N1CCc2c(-c3cnc(N)nc3)nc(N3CCOCC3)nc21`
A: 0.881

Q: Next record, please: CNS(=O)(=O)N1CC[C@@H](N2CCc3c(-c4cnc(N)nc4)nc(N4CCOC[C@@H]4C)nc32)C1 [Example 85]
A: 0.239

Q: Next record, please: `CN(C)C(=O)COC(=O)N1CC(N2CCc3c(-c4cnc(N)nc4)nc(N4CCOCC4)nc32)C1`
A: 0.107

Q: Next record, please: `C[C@H]1COCCN1c1nc(-c2cnc(N)nc2)c2c(n1)N([C@H]1C[C@H](N)C1)CC2.Cl`
A: 0.944

Q: Next record, please: `CC(C)S(=O)(=O)N1CC(C)(N2CCc3c(-c4cnc(N)nc4)nc(N4CCOCC4)nc32)C1`
A: 0.024

Q: Next record, please: `C[C@]1(N2CCc3c(-c4cnc(N)nc4)nc(N4CCOCC4)nc32)CCN(C(=O)[C@@H]2CCCO2)C1`
A: 0.091

###

Entries and their PI3KA_Act Ki values follow.
assayed_target: truncated PI3Kα (p110α/iSH2 p85α) (Homo sapiens (Human), UniProt P42336)
Sequence (P42336 whole entry, the tested form may be a part): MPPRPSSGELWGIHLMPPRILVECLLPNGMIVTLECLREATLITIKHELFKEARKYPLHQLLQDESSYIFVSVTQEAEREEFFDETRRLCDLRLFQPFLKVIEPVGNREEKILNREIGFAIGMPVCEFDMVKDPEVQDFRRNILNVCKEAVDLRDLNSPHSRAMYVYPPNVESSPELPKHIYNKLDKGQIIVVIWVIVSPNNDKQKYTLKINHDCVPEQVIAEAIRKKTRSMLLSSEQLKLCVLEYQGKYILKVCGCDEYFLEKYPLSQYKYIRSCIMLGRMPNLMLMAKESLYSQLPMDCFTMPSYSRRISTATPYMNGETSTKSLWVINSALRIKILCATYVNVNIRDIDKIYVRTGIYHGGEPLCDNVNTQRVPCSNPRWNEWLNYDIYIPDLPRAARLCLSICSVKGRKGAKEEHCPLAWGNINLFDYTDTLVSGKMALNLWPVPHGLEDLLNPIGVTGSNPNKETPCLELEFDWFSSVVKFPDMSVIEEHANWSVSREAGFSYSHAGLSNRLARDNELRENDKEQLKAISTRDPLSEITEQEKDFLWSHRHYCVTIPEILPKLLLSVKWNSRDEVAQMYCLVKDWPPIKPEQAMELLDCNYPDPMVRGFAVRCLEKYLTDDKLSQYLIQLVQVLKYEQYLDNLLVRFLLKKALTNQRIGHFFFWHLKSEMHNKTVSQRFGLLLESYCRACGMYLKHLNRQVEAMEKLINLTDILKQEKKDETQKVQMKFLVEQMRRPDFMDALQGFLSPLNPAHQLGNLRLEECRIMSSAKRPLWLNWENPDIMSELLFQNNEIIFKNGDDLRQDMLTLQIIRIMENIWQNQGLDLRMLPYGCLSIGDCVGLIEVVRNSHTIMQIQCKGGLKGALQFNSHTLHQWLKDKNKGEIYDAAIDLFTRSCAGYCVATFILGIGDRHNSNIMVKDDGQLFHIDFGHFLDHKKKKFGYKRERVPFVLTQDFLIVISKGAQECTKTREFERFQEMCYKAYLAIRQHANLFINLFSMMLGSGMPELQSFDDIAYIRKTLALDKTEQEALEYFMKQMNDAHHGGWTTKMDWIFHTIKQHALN
test_method_notes: PI3KA_Act fluorescence polarization kinase assay (Ki)
Format: biochemical
condition_label: 1 mM ATP
Please state the figure in nM; there is no need to write the unit.

Guide cases for PI3KA_Act Ki, answers given:
INSERT INTO results (compound, assayed_target, units_symbol, result_number) VALUES
  ('CS(=O)(=O)N1CCC[C@@H](N2CCc3c(-c4cnc(N)nc4)nc(N4CCOCC4)nc32)C1', 'truncated PI3Kα (p110α/iSH2 p85α) (Homo sapiens (Human), UniProt P42336)', 'nM', 0.603),
  ('C[C@H]1COCCN1c1nc(-c2cnc(N)nc2)c2c(n1)N(C1(C)CCNCC1)CC2.Cl', 'truncated PI3Kα (p110α/iSH2 p85α) (Homo sapiens (Human), UniProt P42336)', 'nM', 0.346),
  ('C[C@H]1COCCN1c1nc(-c2cnc(N)nc2)c2c(n1)N([C@@]1(C)CN(C(=O)OC(C)(C)C)C[C@@H]1C)CC2', 'truncated PI3Kα (p110α/iSH2 p85α) (Homo sapiens (Human), UniProt P42336)', 'nM', 0.915);

Q: Fill in: PI3KA_Act Ki of `C[C@]1(N2CCc3c(-c4cnc(N)nc4)nc(N4CCOCC4)nc32)CCN(C2CCCC2)C1` is ___
A: 0.311

Q: Next record, please: CC(C(=O)O)C(=O)N1CC[C@](C)(N2CCc3c(-c4cnc(N)nc4)nc(N4CCOCC4)nc32)C1 (stereo partly shown)
A: 0.318

###

Entries and their PI3KA_Act Ki values follow.
assayed_target: truncated PI3Kα (p110α/iSH2 p85α) (Homo sapiens (Human), UniProt P42336)
test_method_notes: PI3KA_Act fluorescence polarization kinase assay (Ki)
Assay type: biochemical
condition_label: 1 mM ATP
Please state the figure in nM; there is no need to write the unit.

Guide cases for PI3KA_Act Ki, answers given:
INSERT INTO assay_data (smiles_input, result_number) VALUES
  ('COC(=O)N1CC[C@H](N2CCc3c(-c4cnc(N)nc4)nc(N4CCOC[C@@H]4C)nc32)C1', 0.069),
  ('N#C[C@H]1C[C@H](N2CCc3c(-c4cnc(N)nc4)nc(N4CCOCC4)nc32)C1', 0.122);

The record that follows has no PI3KA_Act Ki shown yet.
Q: Fill in: PI3KA_Act Ki of `C[C@H]1COCCN1c1nc(-c2cnc(N)nc2)c2c(n1)N(C1(C)CN(C(=O)C(C)(C)N)C1)CC2.Cl` is ___
A: 0.063

###

Entries and their PI3KA_FL Ki values follow.
assayed_target: full-length PI3Kα (full-length p110α/p85α) (Homo sapiens (Human), UniProt P42336)
Sequence (P27986 whole entry partner, one chain of several): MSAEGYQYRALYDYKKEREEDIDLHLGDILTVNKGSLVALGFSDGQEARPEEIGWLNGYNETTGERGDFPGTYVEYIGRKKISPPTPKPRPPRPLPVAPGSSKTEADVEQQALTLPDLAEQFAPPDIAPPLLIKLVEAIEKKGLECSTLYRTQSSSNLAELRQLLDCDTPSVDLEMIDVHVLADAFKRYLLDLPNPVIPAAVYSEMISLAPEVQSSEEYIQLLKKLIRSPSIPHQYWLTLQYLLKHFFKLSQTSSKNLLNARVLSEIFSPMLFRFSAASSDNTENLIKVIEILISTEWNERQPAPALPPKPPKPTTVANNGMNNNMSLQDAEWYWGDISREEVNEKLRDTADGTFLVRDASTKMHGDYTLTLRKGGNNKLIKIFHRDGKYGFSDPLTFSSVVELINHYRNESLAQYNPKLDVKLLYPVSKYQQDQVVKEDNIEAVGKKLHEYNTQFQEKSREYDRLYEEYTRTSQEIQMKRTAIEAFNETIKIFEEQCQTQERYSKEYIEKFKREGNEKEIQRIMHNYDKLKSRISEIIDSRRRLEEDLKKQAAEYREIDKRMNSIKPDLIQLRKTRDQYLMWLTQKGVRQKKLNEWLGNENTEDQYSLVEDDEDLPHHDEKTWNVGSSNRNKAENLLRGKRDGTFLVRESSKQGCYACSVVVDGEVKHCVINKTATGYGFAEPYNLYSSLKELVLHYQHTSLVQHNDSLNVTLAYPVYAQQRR
test_method_notes: PI3KA_FL fluorescence polarization kinase assay (Ki)
Format: biochemical
condition_label: 41 μM ATP
Excerpt: Enzyme Production for Biochemical Assays: 1) PI3Kα Complex (Full Length p110α and p85α)(“PI3KA_FL”) Genes encoding for full length p110α and p85α subunits of PI3Kα complex were subcloned from existing constructs into pFASTBAC Dual vector (Life Technologies, Carlsbad, Calif.) using standard cloning procedures. […] Additionally, sequence encoding for histidine tag and Tobacco Etch Virus (“TEV”) cleavage site preceded p110α ORF (Open Reading Frame). […]
Please state the figure in nM; there is no need to write the unit.

Guide cases for PI3KA_FL Ki, answers given:
INSERT INTO measurements (molecule, units_symbol, result_number) VALUES
  ('CS(=O)(=O)[C@H]1CC[C@@H](N2CCc3c(-c4cnc(N)nc4)nc(N4CCOCC4)nc32)C1', 'nM', 1.268),
  ('CC(=O)N[C@H]1C[C@@H](N2CCc3c(-c4cnc(N)nc4)nc(N4CCOCC4)nc32)C1', 'nM', 9.696),
  ('CC(=O)N1C[C@@H](C(F)F)[C@@H](N2CCc3c(-c4cnc(N)nc4)nc(N4CCOCC4)nc32)C1', 'nM', 27.752),
  ('CN(C)S(=O)(=O)N1CC(N2CCc3c(-c4cnc(N)nc4)nc(N4CCOCC4)nc32)C1', 'nM', 0.735),
  ('C[C@H]1COCCN1c1nc(-c2cnc(N)nc2)c2c(n1)N([C@H]1CCC(F)(F)C1)CC2 (single isomer, unassigned)', 'nM', 1.247);

Q: Fill in: PI3KA_FL Ki of `CC(=O)N1CCC[C@H](N2CCc3c(-c4cnc(N)nc4)nc(N4CCOCC4)nc32)C1` is ___
A: 8.634

Q: Next record, please: `CS(=O)(=O)N[C@H]1C[C@@H](N2CCc3c(-c4cnc(N)nc4)nc(N4CCOCC4)nc32)C1`
A: 1.388

Q: Next record, please: `CC(=O)N[C@H]1CC[C@@H]1N1CCc2c(-c3cnc(N)nc3)nc(N3CCOCC3)nc21`
A: 4.601

Q: Next record, please: `Nc1ncc(-c2nc(N3CCOCC3)nc3c2CCN3C2CN(C=O)C2)cn1`
A: 0.888

###

assayed_target: full-length PI3Kα (full-length p110α/p85α) (Homo sapiens (Human))
test_method_notes: PI3KA_FL fluorescence polarization kinase assay (Ki)
Type: biochemical
condition_label: 41 μM ATP
experimental_endpoint: PI3KA_FL Ki
I'd appreciate it if you included the unit after the number.

INSERT INTO results (compound, experimental_endpoint, result) VALUES
  ('Nc1ncc(-c2nc(N3CCOCC3)nc3c2CCN3[C@H]2CCOC2)cn1', 'PI3KA_FL Ki', '1.423 nM'),
  ('CS(=O)(=O)N1CC[C@@H](N2CCc3c(-c4cnc(N)nc4)nc(N4CCOCC4)nc32)C1', 'PI3KA_FL Ki', '1.247 nM'),
  ('CNC(=O)N1CC[C@H](N2CCc3c(-c4cnc(N)nc4)nc(N4CCOCC4)nc32)C1', 'PI3KA_FL Ki', '1.025 nM'),
  ('Nc1ncc(-c2nc(N3CCOCC3)nc3c2CCN3[C@H]2C[C@H](O)C2)cn1', 'PI3KA_FL Ki', '0.961 nM'),
  ('CO[C@H]1C[C@H](N2CCc3c(-c4cnc(N)nc4)nc(N4CCOCC4)nc32)C1', 'PI3KA_FL Ki', '0.416 nM'),
  ('Nc1ncc(-c2nc(N3CCOCC3)nc3c2CCN3[C@@H]2CCOC2)cn1', 'PI3KA_FL Ki', '4.273 nM'),
  ('CN(C)S(=O)(=O)N1CC[C@H](N2CCc3c(-c4cnc(N)nc4)nc(N4CCOCC4)nc32)C1', 'PI3KA_FL Ki', '0.240 nM'),
  ('CC(=O)N1CC(N2CCc3c(-c4cnc(N)nc4)nc(N4CCOCC4)nc32)C1', 'PI3KA_FL Ki', '5.195 nM');

The record that follows has no PI3KA_FL Ki shown yet.
Q: Fill in: PI3KA_FL Ki of `CC(C)[C@@H](O)C(=O)N(C)[C@H]1C[C@H](N2CCc3c(-c4cnc(N)nc4)nc(N4CCOC[C@@H]4C)nc32)C1` is ___
A: 2.371 nM
